binding signal for assorted sequences
assay_target: MBP-FoxP1dN (Mus musculus, UniProt P58462 326-579)
Sequence: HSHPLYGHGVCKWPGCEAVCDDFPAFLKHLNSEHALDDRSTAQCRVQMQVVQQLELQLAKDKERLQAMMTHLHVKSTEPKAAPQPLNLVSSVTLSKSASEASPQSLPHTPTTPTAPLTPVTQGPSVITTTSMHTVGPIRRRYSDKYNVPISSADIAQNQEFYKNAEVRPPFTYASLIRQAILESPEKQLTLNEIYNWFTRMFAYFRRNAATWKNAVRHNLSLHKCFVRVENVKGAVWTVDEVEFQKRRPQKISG
measurement_notes: PD-seq (MBP pull-down with sequencing); 20 mM Tris-HCl pH 7.5, 100 mM NaCl, 1.5 mM MgCl2, 0.4 uM protein, 0.1 uM dsDNA library, 30 min, room temperature, amylose pull-down; high values mean tight binding
test_context: protein: recombinant; tags: His6-MBP; chain copies: 2; dsDNA, one strand shown
In all, about 16,000 sequences were measured (“rpm ratio (pull-down/input)”: median about 0.94, highest 2% from about 1.7 on). The full list was thinned out, with the highest values kept by preference.

Answered cases to consult:
# sequence_string, observed_measurement
records = [
    ("GATGATTGTTCTCCCAGCTGATGAATTTATCTAATCGAGTAAACAAATTTTCCTAATCTTTCTGTTCAAGCGCCATCTAC", "1.32 RPM ratio (pull-down/input)"),
    ("GATGATTGTTCTCCCAGCTGATGAATTTTATATATCGAGTAAACAAATTTTCCTAATCTTTCTGTTCAAGCGCCATCTAC", "1.11 RPM ratio (pull-down/input)"),
]

Exercise: What value of measured binding signal is listed for GATGATTGTTCTCCCAGCTGATGAATTTTCTTTATCGAGTAAACAAATTTTCCTAATCTTTCTGTTCAAGCGCCATCTAC ?
Solution: 1.2 RPM ratio (pull-down/input)

Exercise: Reported binding signal for GATGATTGTTCTCCCAGCTGATGAATTGATGCCATCGAGTAAACAAATTTTCCTAATCTTTCTGTTCAAGCGCCATCTAC : what is it?
Solution: 1.39 RPM ratio (pull-down/input)

Exercise: Request the reported binding signal associated with GATGATTGTTCTCCCAGCTGATGAATTAACGCTGTCGAGTAAACAAATTTTCCTAATCTTTCTGTTCAAGCGCCATCTAC
Solution: 0.97 RPM ratio (pull-down/input)

Exercise: Please report the recorded binding signal for GATGATTGTTCTCCCAGCTGATGAATTATGCCACTCGAGTAAACAAATTTTCCTAATCTTTCTGTTCAAGCGCCATCTAC .
Solution: 1.06 RPM ratio (pull-down/input)

Exercise: Which value of binding signal has been reported for GATGATTGTTCTCCCAGCTGATGAATTAGTTTTATCGAGTAAACAAATTTTCCTAATCTTTCTGTTCAAGCGCCATCTAC in the records?
Solution: 1.02 RPM ratio (pull-down/input)

----------
assay_target: MBP-FoxP1dN (Mus musculus, UniProt P58462 326-579)
Sequence: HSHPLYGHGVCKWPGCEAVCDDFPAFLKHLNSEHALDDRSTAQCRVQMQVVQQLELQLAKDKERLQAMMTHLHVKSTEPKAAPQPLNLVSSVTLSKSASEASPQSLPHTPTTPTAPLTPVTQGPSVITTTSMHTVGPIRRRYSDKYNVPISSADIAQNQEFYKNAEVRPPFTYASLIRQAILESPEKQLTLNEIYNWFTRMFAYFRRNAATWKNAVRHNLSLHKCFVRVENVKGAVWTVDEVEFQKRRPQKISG
measurement_notes: PD-seq (MBP pull-down with sequencing); 20 mM Tris-HCl pH 7.5, 100 mM NaCl, 1.5 mM MgCl2, 0.4 uM protein, 0.1 uM dsDNA library, 30 min, room temperature, amylose pull-down; high values mean tight binding
test_context: protein: recombinant; tags: His6-MBP; chain copies: 2; dsDNA, one strand shown
The full ranking holds about 16,000 sequences; the median of “rpm ratio (pull-down/input)” is about 0.94, and the highest 2% start at about 1.7. The sample as a whole holds a higher share of the highest values than the screen did.
measurement_type: binding signal

# sequence_string, observed_measurement
records = [
    ("GATGATTGTTCTCCCAGCTGATGAATTGTCGTCGTCGAGTAAACAAATTTTCCTAATCTTTCTGTTCAAGCGCCATCTAC", "1.05 RPM ratio (pull-down/input)"),
    ("GATGATTGTTCTCCCAGCTGATGAATTGGTGTTATCGAGTAAACAAATTTTCCTAATCTTTCTGTTCAAGCGCCATCTAC", "1.9 RPM ratio (pull-down/input)"),
    ("GATGATTGTTCTCCCAGCTGATGAATTTATCAAATCGAGTAAACAAATTTTCCTAATCTTTCTGTTCAAGCGCCATCTAC", "1.28 RPM ratio (pull-down/input)"),
    ("GATGATTGTTCTCCCAGCTGATGAATTGCTCTTATCGAGTAAACAAATTTTCCTAATCTTTCTGTTCAAGCGCCATCTAC", "1.17 RPM ratio (pull-down/input)"),
    ("GATGATTGTTCTCCCAGCTGATGAATTTGTTTCTTCGAGTAAACAAATTTTCCTAATCTTTCTGTTCAAGCGCCATCTAC", "1.7 RPM ratio (pull-down/input)"),
]

Exercise: Hello, I am looking for reported binding signal with MBP-FoxP1dN (Mus musculus, UniProt P58462 326-579) for GATGATTGTTCTCCCAGCTGATGAATTGTGCCTATCGAGTAAACAAATTTTCCTAATCTTTCTGTTCAAGCGCCATCTAC . Could you help?
Solution: 1.09 RPM ratio (pull-down/input)

Exercise: Missing value: binding signal, MBP-FoxP1dN (Mus musculus, UniProt P58462 326-579), entry GATGATTGTTCTCCCAGCTGATGAATTTTTTGTTTCGAGTAAACAAATTTTCCTAATCTTTCTGTTCAAGCGCCATCTAC . Fill in?
Solution: 1.13 RPM ratio (pull-down/input)

Exercise: Query the reported binding signal for MBP-FoxP1dN (Mus musculus, UniProt P58462 326-579); item: GATGATTGTTCTCCCAGCTGATGAATTTGTAAGATCGAGTAAACAAATTTTCCTAATCTTTCTGTTCAAGCGCCATCTAC
Solution: 1.09 RPM ratio (pull-down/input)

Exercise: API: value(readout= binding signal, system= MBP-FoxP1dN (Mus musculus, UniProt P58462 326-579), query= GATGATTGTTCTCCCAGCTGATGAATTTTGTTTTTCGAGTAAACAAATTTTCCTAATCTTTCTGTTCAAGCGCCATCTAC )
Solution: 2.75 RPM ratio (pull-down/input)

Exercise: So what binding signal did GATGATTGTTCTCCCAGCTGATGAATTCTTTTTATCGAGTAAACAAATTTTCCTAATCTTTCTGTTCAAGCGCCATCTAC get with MBP-FoxP1dN (Mus musculus, UniProt P58462 326-579)?
Solution: 1 RPM ratio (pull-down/input)

Exercise: Item GATGATTGTTCTCCCAGCTGATGAATTCCTTGTGTCGAGTAAACAAATTTTCCTAATCTTTCTGTTCAAGCGCCATCTAC with MBP-FoxP1dN (Mus musculus, UniProt P58462 326-579) - binding signal?
Solution: 0.961 RPM ratio (pull-down/input)

Exercise: // lookup binding signal | system=MBP-FoxP1dN (Mus musculus, UniProt P58462 326-579) | key= GATGATTGTTCTCCCAGCTGATGAATTTATCTGATCGAGTAAACAAATTTTCCTAATCTTTCTGTTCAAGCGCCATCTAC
Solution: 1.07 RPM ratio (pull-down/input)

Exercise: Notebook: pull reported binding signal for MBP-FoxP1dN (Mus musculus, UniProt P58462 326-579), entry GATGATTGTTCTCCCAGCTGATGAATTGCTTCCTTCGAGTAAACAAATTTTCCTAATCTTTCTGTTCAAGCGCCATCTAC
Solution: 1.06 RPM ratio (pull-down/input)

Exercise: # get_value(readout= binding signal, system= MBP-FoxP1dN (Mus musculus, UniProt P58462 326-579)) for GATGATTGTTCTCCCAGCTGATGAATTTTTGTTATCGAGTAAACAAATTTTCCTAATCTTTCTGTTCAAGCGCCATCTAC
Solution: 2.35 RPM ratio (pull-down/input)

Exercise: What measured binding signal is associated with GATGATTGTTCTCCCAGCTGATGAATTGAATTGTTCGAGTAAACAAATTTTCCTAATCTTTCTGTTCAAGCGCCATCTAC on MBP-FoxP1dN (Mus musculus, UniProt P58462 326-579)?
Solution: 0.984 RPM ratio (pull-down/input)

Exercise: Request body: readout binding signal, system MBP-FoxP1dN (Mus musculus, UniProt P58462 326-579), query GATGATTGTTCTCCCAGCTGATGAATTCTCCGGGTCGAGTAAACAAATTTTCCTAATCTTTCTGTTCAAGCGCCATCTAC . Return the value.
Solution: 0.759 RPM ratio (pull-down/input)

Exercise: # query: binding signal | item GATGATTGTTCTCCCAGCTGATGAATTGCTTTTATCGAGTAAACAAATTTTCCTAATCTTTCTGTTCAAGCGCCATCTAC | system: MBP-FoxP1dN (Mus musculus, UniProt P58462 326-579)
Solution: 1.26 RPM ratio (pull-down/input)

Exercise: Record GATGATTGTTCTCCCAGCTGATGAATTGTTAGTTTCGAGTAAACAAATTTTCCTAATCTTTCTGTTCAAGCGCCATCTAC : what is its binding signal with MBP-FoxP1dN (Mus musculus, UniProt P58462 326-579)?
Solution: 1.7 RPM ratio (pull-down/input)

Exercise: binding signal of GATGATTGTTCTCCCAGCTGATGAATTTCTTATCTCGAGTAAACAAATTTTCCTAATCTTTCTGTTCAAGCGCCATCTAC on MBP-FoxP1dN (Mus musculus, UniProt P58462 326-579)?
Solution: 0.829 RPM ratio (pull-down/input)
